Experiment: in vitro
Conditions: human, H1299 cells
measured_parameter: viability at 48 h, 0.5 µM (%)
Hi! Could you send only the number? It should be in %, unit omitted.

*Q* Requested read-out: viability at 48 h, 0.5 µM. Entry: "O=C(CCCc1ccccc1)Nc1ccc(C(=O)NO)cc1"
*A* 94
